Please provide measured peptide exchange yield for the entries that follow.
TARGET SYSTEM: T1, HLA-A*02:01 (human)
T1 construct: MHC monomers first loaded with a UV-sensitive peptide (not identified) that is cleaved by UV light and exchanged for the test peptide; captured on streptavidin plates, detected with anti-β2m; also called peptide-receptive MHC molecules; MHC class I
METHOD SUMMARY: UV-ligand exchange + anti-b2m ELISA; peptide exchange yield grade (+ >=10%, ++ >=20%, +++ >=50, ++++ >=75%)
Text: Candidate peptides for T cell based therapies according to the present invention were further tested for their MHC binding capacity (affinity). The individual peptide-MHC complexes were produced by UV-ligand exchange, where a UV-sensitive peptide is cleaved upon UV-irradiation, and exchanged with the peptide of interest as analyzed. Only peptide candidates that can effectively bind and stabilize the peptide-receptive MHC molecules prevent dissociation of the MHC complexes. […]

Input: Look at this binder and give its reported peptide exchange yield. KLLQNNYGL (source gene RGS5) [KLLQNNYGL (SEQ ID NO: 10)]
Output: 20 to 50%

Input: I have this binder here, ILWKDIEYV (source gene SYT9) [ILWKDIEYV (SEQ ID NO: 60)] , and I need its recorded peptide exchange yield.
Output: 50 to 75%

Input: Dear colleague, I am looking for the recorded peptide exchange yield of the following binder: FIQTEAPKEV (source gene RGS5) [FIQTEAPKEV (SEQ ID NO: 11)]
Output: 20 to 50%

Input: Item YVLDLAAKV (source gene ACLY) [YVLDLAAKV (SEQ ID NO: 18)] has what recorded peptide exchange yield?
Output: 50 to 75%

Input: Query: peptide exchange yield; subject: VLHSLQTQL (source gene ANGPTL4) [VLHSLQTQL (SEQ ID NO: 35)]
Output: 20 to 50%

Input: Entry under review: VLFGLDPAVIKV (source gene HSPA12A) [VLFGLDPAVIKV (SEQ ID NO: 31)] . Reported peptide exchange yield?
Output: 50 to 75%

Input: Sample ALDGHLYAV (source gene KBTBD11) [ALDGHLYAV (SEQ ID NO: 71)] — what was its peptide exchange yield?
Output: 50 to 75%

Input: For the binder shown here, IQWSIVPEV (source gene GRAMD4) [IQWSIVPEV (SEQ ID NO: 83)] , give the reported peptide exchange yield.
Output: 50 to 75%

The measurements presented in this section are drawn from patent US20160287687A1.
